Provenance of the data: patent US20210388102A1

Target: T1, His-tagged soluble human ADAM9 (shADAM9-His) (human, UniProt Q13443 206-697)
T1 construct: Contains an extracellular portion of human ADAM9; also called huADAM9-His; His peptide-tagged soluble huADAM9
T1 sequence: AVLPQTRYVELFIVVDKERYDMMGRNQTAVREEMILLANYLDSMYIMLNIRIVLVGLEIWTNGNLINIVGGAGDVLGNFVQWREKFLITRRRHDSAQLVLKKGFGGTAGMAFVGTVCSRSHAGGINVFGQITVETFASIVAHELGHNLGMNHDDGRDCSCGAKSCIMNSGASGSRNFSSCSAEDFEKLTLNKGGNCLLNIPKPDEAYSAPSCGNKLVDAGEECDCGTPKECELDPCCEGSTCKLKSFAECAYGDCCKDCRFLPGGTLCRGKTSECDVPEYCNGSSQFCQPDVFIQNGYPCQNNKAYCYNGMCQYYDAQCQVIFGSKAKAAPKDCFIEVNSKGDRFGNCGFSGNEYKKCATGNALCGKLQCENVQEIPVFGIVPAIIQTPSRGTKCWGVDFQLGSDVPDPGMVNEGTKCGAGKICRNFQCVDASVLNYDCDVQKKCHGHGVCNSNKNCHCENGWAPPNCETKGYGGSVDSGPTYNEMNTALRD
Assay: SPR (BIACORE), antibody captured on anti-human Fc, shADAM9-His 6.25-100 nM, 1:1 Langmuir
parameter: pKd
# pKd is unitless: minus log10 of the molar concentration; print number only

Sample records with pKd:
INSERT INTO results (binder, measured_result) VALUES
  ('hMAB-A (2.3) (antibody, V domains shown, also called hMAB-A VH(2)/hMAB-A VL(3)) VH: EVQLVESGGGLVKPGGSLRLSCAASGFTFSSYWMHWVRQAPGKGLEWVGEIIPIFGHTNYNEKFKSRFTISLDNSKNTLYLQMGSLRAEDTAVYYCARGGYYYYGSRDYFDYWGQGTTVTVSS VL: DIVMTQSPDSLAVSLGERATISCRASQSVDYSGDSYMNWYQQKPGQPPKLLIYAASDLESGIPARFSGSGSGTDFTLTISSLEPEDFATYYCQQSHEDPFTFGQGTKLEIK', 8.89),
  ('hMAB-A (1.1) (antibody, V domains shown, also called hMAB-A VH(1)/hMAB-A VL(1)) VH: EVQLVESGGGLVKPGGSLRLSCAASGFTFSSYWMHWVRQAPGKGLEWVGEIIPINGHTNYNEKFKSRFTISLDNSKNTLYLQMGSLRAEDTAVYYCARGGYYYYGSRDYFDYWGQGTTVTVSS VL: DIVMTQSPDSLAVSLGERATISCKASQSVDYDGDSYMNWYQQKPGQPPKLLIYAASDLESGIPARFSGSGSGTDFTLTISSLEPEDFATYYCQQSHEDPFTFGQGTKLEIK', 8.46),
  ('hMAB-A (2.2) (antibody, human IgG1, kappa, V domains shown, IgG1 kappa; also called huMAB-A(2.2); parental hMAB-A (2.2)) VH: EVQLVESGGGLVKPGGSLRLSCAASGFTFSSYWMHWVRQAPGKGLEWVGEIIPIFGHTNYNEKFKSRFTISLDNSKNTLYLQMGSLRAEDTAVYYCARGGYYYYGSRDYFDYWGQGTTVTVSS VL: DIVMTQSPDSLAVSLGERATISCKASQSVDYSGDSYMNWYQQKPGQPPKLLIYAASDLESGIPARFSGSGSGTDFTLTISSLEPEDFATYYCQQSHEDPFTFGQGTKLEIKR', 8.85),
  ('chMAB-A (antibody, V domains shown, also called chimeric version of MAB-A; chimeric chMAB-A) VH: QVQLQQPGAELVKPGASVKLSCKASGYTFTSYWMHWVKQRPGQGLEWIGEIIPINGHTNYNEKFKSKATLTLDKSSSTAYMQLSSLASEDSAVYYCARGGYYYYGSRDYFDYWGQGTTLTVSS VL: DIVLTQSPASLAVSLGQRATISCKASQSVDYDGDSYMNWYQQIPGQPPKLLIYAASDLESGIPARFSGSGSGTDFTLNIHPVEEEDAATYYCQQSHEDPFTFGGGTKLEIK', 8.44),
  ('hMAB-A (3.3) (antibody, V domains shown, also called hMAB-A VH(3)/hMAB-A VL(3)) VH: EVQLVESGGGLVKPGGSLRLSCAASGFTFSSYWMHWVRQAPGKGLEWVGEIIPIFGHTNYNERFQGRFTISLDNSKNTLYLQMGSLRAEDTAVYYCARGGYYYYGSRDYFDYWGQGTTVTVSS VL: DIVMTQSPDSLAVSLGERATISCRASQSVDYSGDSYMNWYQQKPGQPPKLLIYAASDLESGIPARFSGSGSGTDFTLTISSLEPEDFATYYCQQSHEDPFTFGQGTKLEIK', 8.85);

Which measured pKd value corresponds to hMAB-A (4.4) (antibody, V domains shown, also called hMAB-A VH(4)/hMAB-A VL(4)) VH: EVQLVESGGGLVKPGGSLRLSCAASGFTFSSYWIHWVRQAPGKGLEWVGEIIPIFGHTNYNERFQGRFTISLDNSKNTLYLQMGSLRAEDTAVYYCARGGYYYYGSRDYFDYWGQGTTVTVSS VL: DIVMTQSPDSLAVSLGERATISCRASQSVDYSGDSYLNWYQQKPGQPPKLLIYAASDLESGIPARFSGSGSGTDFTLTISSLEPEDFATYYCQQSYSTPFTFGQGTKLEIK ?
8.70
